assayed.target: Human GLP-1 receptor (Homo sapiens)
Construct: expressed in transfected cells
Sequence (P43220 24-463): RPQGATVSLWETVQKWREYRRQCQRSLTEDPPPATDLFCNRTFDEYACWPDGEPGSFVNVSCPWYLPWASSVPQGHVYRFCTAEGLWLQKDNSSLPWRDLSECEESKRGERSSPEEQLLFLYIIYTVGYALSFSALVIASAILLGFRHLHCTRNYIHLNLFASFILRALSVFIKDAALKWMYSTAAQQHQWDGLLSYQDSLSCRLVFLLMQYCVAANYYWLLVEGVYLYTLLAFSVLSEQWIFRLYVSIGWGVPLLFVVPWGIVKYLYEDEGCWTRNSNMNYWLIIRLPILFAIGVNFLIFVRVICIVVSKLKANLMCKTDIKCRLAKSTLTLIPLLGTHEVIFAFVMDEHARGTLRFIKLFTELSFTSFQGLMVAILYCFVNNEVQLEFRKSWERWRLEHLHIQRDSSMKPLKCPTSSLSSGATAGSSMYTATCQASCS
protocol.summary: Measurement of GLP-1 receptor agonist activity (cAMP assay);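 note: EC50 of cAMP increase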
Assay type: cell-based
assay.context: hGLP-1R/CHO-K1 cells, cAMP increase, 37° C. 1 hour
pEC50: −log10 of the molar value.
test.readout: pEC50

>  <compound>
C[C@H]1c2cc(OCc3ccc(OC(F)F)cc3F)c(C(F)(F)F)cc2CCN1Cc1nc2ccc(C(=O)O)c(F)c2n1C[C@@H]1CCO1

>  <assayed.target>
Human GLP-1 receptor (Homo sapiens)

>  <pEC50>
9.07

$$$$
>  <compound>
COc1cc(F)c(COc2cc3c(cc2C(F)(F)F)CCN(Cc2nc4ccc(C(=O)O)cc4n2C[C@@H]2CCO2)C3)c(F)c1

>  <assayed.target>
Human GLP-1 receptor (Homo sapiens)

>  <pEC50>
8.27

$$$$
>  <compound>
O=C(O)c1ccc2nc(CN3CCc4cc(C(F)(F)F)c(OCc5ccc(Cl)cc5F)cc4C3)n(CC3(C(F)F)CC3)c2c1

>  <assayed.target>
Human GLP-1 receptor (Homo sapiens)

>  <pEC50>
7.12

$$$$
>  <compound>
O=C(O)c1ccc2nc(CN3CCc4cc(C(F)(F)F)c(OCc5ccc(Cl)cc5F)cc4C3)n(CCOC(F)F)c2c1

>  <assayed.target>
Human GLP-1 receptor (Homo sapiens)

>  <pEC50>
7.01

$$$$
>  <compound>
O=C(O)c1ccc2nc(CN3CCc4cc(C(F)(F)F)c(OCc5ccc(Cl)cc5F)cc4C3C(F)F)n(C[C@@H]3CCO3)c2c1 (mixture of isomers)

>  <assayed.target>
Human GLP-1 receptor (Homo sapiens)

>  <pEC50>
8.06

$$$$

I = C[C@H]1c2cc(OCc3ccc(C4CC4)cc3)c(C(F)(F)F)cc2CCN1Cc1nc2ccc(C(=O)O)cc2n1C[C@@H]1CCO1
II = CCn1cncc1Cn1c(CN2CCc3cc(C)c(OCc4ccc(Cl)cc4F)cc3C2)nc2ccc(C(=O)O)cc21
III = C[C@H]1c2cc(OCc3ccc(F)cc3F)c(C(F)(F)F)cc2CCN1Cc1nc2ccc(C(=O)O)c(F)c2n1C[C@@H]1CCO1
IV = CCn1cncc1Cn1c(CN2CCc3cc(C(F)(F)F)c(OCc4ccc(Cl)cc4F)cc3C2)nc2ccc(C(=O)O)cc21
V = COc1cc(Cl)ccc1COc1cc2c(cc1C(F)(F)F)CCN(Cc1nc3c(F)cc(C(=O)O)cc3n1C[C@@H]1CCO1)[C@H]2C
Task field, ranking: reported pEC50, descending order. Answer format: the labels, ordered as requested.
V, III, IV, I, II
